experiment: Antiproliferative activity against human EA.hy 926 cells assessed as inhibition of cell growth; type: toxicity, cell-based
pIC50: −log10 of the molar value.
Each record here notes measured pIC50.

Compound structure	pIC50
Cc1ncsc1-c1ccc(CNC(=O)[C@@H]2C[C@@H](O)CN2C(=O)[C@@H](NC(=O)CCCCCCCCCCC(=O)n2nc(N)c3c(-c4cccc(NC(=O)Nc5cccc(Cl)c5)c4)cccc32)C(C)(C)C)cc1	4.68
Cc1ncsc1-c1ccc(CNC(=O)[C@@H]2C[C@@H](O)CN2C(=O)[C@@H](NC(=O)CCCCCCCCCCCCCCC(=O)n2nc(N)c3c(-c4cccc(NC(=O)Nc5cccc(Cl)c5)c4)cccc32)C(C)(C)C)cc1	4.54
Cc1ncsc1-c1ccc(CNC(=O)[C@@H]2C[C@@H](O)CN2C(=O)[C@@H](NC(=O)CCCCCC(=O)n2nc(N)c3c(-c4cccc(NC(=O)Nc5cccc(Cl)c5)c4)cccc32)C(C)(C)C)cc1	4.70
Nc1n[nH]c2cccc(-c3cccc(NC(=O)Nc4cccc(Cl)c4)c3)c12	5.13
